Entry source: PubChem BioAssay

test system: Human papillomavirus type 1a protein E7 (residues 44-93); assay: small molecules binding HPV E7 44-93 – biochemical, small-molecule microarray, residues 44-93, 635 nm fluorescence, primary screen (AID 1108); details: fluorescence 635 nm, higher = more signal;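 note: E7 fragment applied at 1 µg/mL in TBST for 1 h at 4 C; score combines spot fluorescence with its signal to noise ratio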
measured_parameter: composite z-score

Per the record, [N-]=[N+]=NCc1ccccc1[C@@H]1OC(c2ccc(OCCCO)cc2)=N[C@]1(Cc1ccccc1N=[N+]=[N-])C(=O)NCC(O)CO (stereo partly drawn) has composite z-score of 1.18

Sure, the documented composite z-score for COC(=O)C(CC#Cc1ccc2c(c1)[C@]1(C(=O)N2)[C@H](C(=O)N2CCc3cc(OC)c(OC)cc3C2)[C@H]2C(=O)O[C@H](c3ccccc3)[C@H](c3ccccc3)N2[C@@H]1c1ccccc1OCCO)C(=O)OC is -0.099

The reported value for O=C1[C@H]2C=C(I)[C@H](C[C@@H]2c2ccccc2)[C@@]12CO2 in terms of composite z-score is -0.0983

----------
assay: S6 kinase pathway phospho-S6 level changes – cell-based, A549, cytoblot, luminescence, serum-stimulated, primary screen (AID 1158); details: 5 h, higher = more signal;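 note: serum-stimulated A549 lung adenocarcinoma cells; signal is phosphorylated S6 detected by cytoblot immunostaining with HRP secondary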
Give z-score for every item shown.
Number only, please.

# z-score of CC(C)C[C@H]1NC(=O)C([C@@H](C)OCc2ccccc2)NC(=O)[C@@]23C(=O)N[C@@H](Cc4ccccc4)C2[C@H](C)[C@@]2(C)O[C@H]2C3/C=C/C/C=C\CNC1=O (some centres not stated) = 0.298

Lab book: z-score of COC(=O)[C@@]1(Cc2ccc(F)cc2)[C@H]2c3cc(C(=O)N4CCCC4)n(Cc4ccccn4)c3C[C@H]2CN1C(=O)c1ccccc1 noted as 0.0347

Reported z-score ( CCOC(=O)C1=CCC(c2cc3ccccc3[nH]2)N(CCN2CC(C(=O)OCC)=CCC2c2cc3ccccc3[nH]2)C1 (configuration not stated) ) = 1.56

Measured z-score of COc1ccc([Si](C)(C)[C@H]2[C@H](CCO)O[C@@]3(C(=O)N(Cc4cccc(N5C(=O)c6ccccc6Oc6ccccc65)c4)c4ccccc43)[C@@H]2C)cc1 : 0.87

Entry COCCOC(=O)N1C(=O)[C@@]2(c3ccccc31)[C@H](c1ccc(O)cc1)N1[C@H](c3ccccc3)[C@H](c3ccccc3)OC(=O)[C@H]1[C@@H]2C(=O)N1CCCCCCC1 — recorded z-score = -0.43

According to the records, this molecule CC(C)N1C(=O)c2ccccc2[C@](C)(C(=O)NCC(F)(F)F)[C@@H]1c1ccc(CO)cc1 displays z-score of 0.0308

Lookup result for CCCN1C(=O)[C@@]2(c3ccc([N+](=O)[O-])cc3)CC(=O)N(CC34CC5CC(CC(C5)C3)C4)[C@@H]2c2ccc(CO)cc21 ; measured z-score: -0.574

----------
molecular target: Concanavalin-A (Canavalia ensiformis); test: compounds binding concanavalin A lectin – biochemical, small-molecule microarray, Alexa647 label, 635 nm, artefact control for SMM control protein annotation, primary screen (AID 1127); details: ConA-A647 binding fluorescence, higher = more signal;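 note: z combines 667 nm emission intensity with signal-to-noise across three replicate slides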
Rule: composite z-score of 0.3 or more gives Yes; anything lower gives No.

Given O=C1O[C@H](c2ccccc2)[C@H](c2ccccc2)N2[C@H]1[C@@H](C(=O)N1CCN(c3ncccn3)CC1)[C@]1(C(=O)Nc3ccc(C#CCCO)cc31)[C@H]2c1ccc(O)cc1 , state whether its composite z-score is at least 0.3. Yes

Please check the record COCCCNC(=O)[C@@]1(Sc2ccc(C)cc2)CC(=O)N(Cc2ccccc2C(F)(F)F)[C@@H]1c1ccc(CO)cc1I and state if its composite z-score is at or above 0.3. No

Given NC(=O)N1C(=O)C2C(C1=O)C1C=C(CCCO)C2C(c2ccc(CN3CCCC3)cc2)N1Cc1sc2ccccc2c1Cl (stereo not drawn) , state whether its composite z-score is at least 0.3. No

Hello, I need to know if CCCN1C(=O)[C@@]2(c3ccc([N+](=O)[O-])cc3)CC(=O)N(CC34CC5CC(CC(C5)C3)C4)[C@@H]2c2ccc(CO)cc21 has measured composite z-score not below 0.3. Thanks! No

Is reported composite z-score greater than or equal to 0.3 here: COc1ccc([Si](C)(C)[C@@H]2[C@@H](CC(=O)N3Cc4ccccc4C[C@H]3CO)O[C@]3(C(=O)N(Cc4cccc(N5CCOC5=O)c4)c4ccccc43)[C@H]2C)cc1 Yes

Item CCOC(=O)C[C@H]1[C@H](OC(=O)c2ccccc2-c2ccccc2)[C@@H](NC(=O)C2CCCCC2)c2cc(OCCCO)ccc2N1C(=O)c1ccc2ccccc2n1 with composite z-score of 0.3 or above? No

Can O=C1C[C@@](C(=O)O)(c2ccc([N+](=O)[O-])cc2)[C@@H](c2ccc(CO)cc2)N1C1CCCCC1 be said to have composite z-score at or above 0.3? Yes

Is it the case that COc1ccc([Si](C)(C)[C@@H]2[C@@H](CC(=O)N3Cc4ccccc4C[C@H]3CO)O[C@]3(C(=O)N(Cc4ccc(N5CCOC5=O)cc4)c4ccccc43)[C@H]2C)cc1 has composite z-score reaching or exceeding 0.3? Yes

----------
For each record, write down the corresponding z-score.
test: FRG1 expression reporter modulators in myotubes – cell-based, C2C12 myotubes, firefly/Renilla luciferase, luminescence, FRG1 inhibition for FSHD, primary screen (AID 1084); settings: FRG1 promoter luciferase, higher = more signal, called active from +8 up or from −8 down
Hey, just send me the number, nothing else.

Per the records, this compound ( C=C(CCCC)/C(=C/C[C@H](OC(=O)c1ccncc1)c1ccc(OCCO)cc1)c1cnc2ccccc2c1 ) has z-score equal to -0.791

Just so you know, measured z-score for COc1ccc([Si](C)(C)[C@H]2[C@H](CC(=O)N3Cc4ccccc4C[C@H]3CO)O[C@@]3(C(=O)N(C)c4ccccc43)[C@@H]2C)cc1 came out at -3.34

Notebook: O=C1O[C@@H](c2ccccc2)[C@@H](c2ccccc2)N2[C@@H](c3ccc(OCCO)cc3)[C@]3(C(=O)Nc4ccc(C#CC5(O)CCCCCC5)cc43)[C@@H](C(=O)Nc3nc4ccccc4s3)[C@H]12 , z-score read as 2.48

// recorded z-score for Cc1ccc(S[C@]2(C(=O)NCc3ccccc3)CC(=O)N(Cc3ccccc3C(F)(F)F)[C@@H]2c2ccc(CO)cc2)cc1 : -1.92

// O=C1OCCC=C[C@H]2OC34C=CCN(c5ccc6ccccc6c5)C(=O)[C@H]3N(CCO)C(=O)[C@@H]4C12 (some centres undefined) : z-score value = 0.149

Noted for COCCOC(=O)N1C(=O)[C@@]2(c3cc(C#CCCO)ccc31)[C@H](C(N)=O)[C@H]1C(=O)O[C@H](c3ccccc3)[C@H](c3ccccc3)N1[C@@H]2c1ccccc1OCCO : its z-score reads -0.96

The reported value for COC(=O)[C@@]1(Cc2ccccc2)[C@H]2c3cc(C(=O)N(C)C)n(CCSC(=N)N)c3C[C@H]2CN1C(=O)c1ccccc1 in terms of z-score is 0.453

Value of measured z-score for the entry O=C1c2ccccc2[C@@]2(Cc3ccccc3N(Cc3ccccc3)C2=O)[C@H](c2ccc(CO)cc2)N1Cc1ccccc1Cl : 1.13

Please fill in: z-score reported for C=CCOC(=O)[C@H]1[C@@H]2C(=O)O[C@@H](c3ccccc3)[C@@H](c3ccccc3)N2[C@@H](c2ccc(OCCOC(=O)[C@@H]3C[C@@H]4C(=O)N[C@@H](CCCC[N+](C)(C)C)C(=O)N4[C@@H]3c3ccc(O)cc3)cc2)[C@]12C(=O)Nc1ccc(I)cc12 = 0.687

Lab book: z-score of CC1CC/C=C\[C@H]2OC34C=CCN(c5ccc(Cl)cc5)C(=O)[C@H]3N(CCCCCCO)C(=O)[C@]4(C)C2C(=O)O1 (some centres undefined) noted as 0.975

# z-score of NC(=O)N1C(=O)C2C(C1=O)C1C=C(CCCO)C2C(c2ccc(CN3CCCC3)cc2)N1Cc1sc2ccccc2c1Cl (centres undefined) = -0.824

The reported z-score of the compound COC(=O)[C@]1(CCC(=O)OC(C)(C)C)N=C(c2ccc(OCCCO)cc2)O[C@@H]1c1ccccc1N=[N+]=[N-] was 2.96

The measured z-score associated with CC(C)=CCCC(C)=CC(O)C1C=CC2C(=O)NC(=O)C2N1Nc1ccccn1 (centres undefined) reads -0.385

Record CCCC=C(CCC)[C@@H](NC(=O)OCC(C)C)c1ccc(C(=O)OC)cc1 , field z-score: -0.705

----------
target: Luciferin 4-monooxygenase (Photinus pyralis) (UniProt P08659); experiment: inhibition of purified Photinus pyralis luciferase – biochemical, luminescence, purified enzyme, 2006 set, primary screen (AID 1141); conditions: purified firefly luciferase, SteadyGlo luminescence, 30 min; higher = more signal, called active from +8 up or from −8 down;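 note: cell-free assay with purified firefly luciferase at 100 ng per well in PBS; test concentration not given here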
Sequence (P08659 whole entry, looked up): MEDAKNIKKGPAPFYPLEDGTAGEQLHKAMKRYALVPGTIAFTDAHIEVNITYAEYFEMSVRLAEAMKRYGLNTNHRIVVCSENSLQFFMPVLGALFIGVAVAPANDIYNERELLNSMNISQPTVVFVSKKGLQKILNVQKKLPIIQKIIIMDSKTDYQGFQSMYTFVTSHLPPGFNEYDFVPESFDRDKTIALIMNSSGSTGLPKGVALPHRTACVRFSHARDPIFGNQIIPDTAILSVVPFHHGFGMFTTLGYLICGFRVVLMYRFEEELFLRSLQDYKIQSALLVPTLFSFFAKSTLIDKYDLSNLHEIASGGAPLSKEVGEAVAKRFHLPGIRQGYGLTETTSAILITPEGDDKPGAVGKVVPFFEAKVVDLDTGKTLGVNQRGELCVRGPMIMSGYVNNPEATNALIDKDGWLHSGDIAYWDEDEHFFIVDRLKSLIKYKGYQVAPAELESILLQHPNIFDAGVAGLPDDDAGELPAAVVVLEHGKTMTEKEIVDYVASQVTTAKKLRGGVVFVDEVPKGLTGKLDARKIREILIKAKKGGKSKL
# z-score binned as bottom = under -0.4, middle = from -0.4 up to 0.2, top = 0.2 and over

Kindly state the category for this compound: CCCN1C(=O)[C@]2(CCC(=O)OC(C)(C)C)N=C(c3ccc(OCCCO)cc3)O[C@@H]2c2ccccc21 bottom

Form: Item = COc1ccccc1CN1C(=O)c2ccccc2[C@](Cc2ccccc2I)(C(=O)NCC(C)C)[C@@H]1c1ccc(CO)cc1 ; Class = ? bottom

Please classify: COC(=O)C(CC#Cc1ccc2c(c1)[C@]1(C(=O)N2)[C@H](c2ccccc2OCCO)N2[C@H](c3ccccc3)[C@H](c3ccccc3)OC(=O)[C@H]2[C@@H]1C(=O)N1CCc2cc(OC)c(OC)cc2C1)C(=O)OC middle

Into which bin does this compound go? COC(=O)C1(Cc2ccccc2)C=C2C(=C(C)C(=O)C2C)CN1 (stereo unspecified) middle

GET /class?item= CCC(CC)C(O)C1C=CC2C(=O)N(c3ccccc3)C(=O)C2N1Nc1ccccc1F (stereo unspecified) top

Which bin should I file COc1ccc([Si](C)(C)[C@H]2[C@H](CC(=O)N3Cc4ccccc4C[C@H]3CO)O[C@@]3(C(=O)N(C)c4ccccc43)[C@@H]2C)cc1 under? middle

Entry CCOC(=O)c1cn(C[C@H](Cc2ccccc2)NC(=O)N[C@H](CO)CCc2oc(C(C)=O)c(C(=O)OC)c2C(=O)OC)nn1 belongs to which category? top

In plain terms, what class is CC(C)C[C@H]1NC(=O)C([C@@H](C)OCc2ccccc2)NC(=O)[C@@]23C(=O)N[C@@H](Cc4ccccc4)C2[C@H](C)[C@@]2(C)O[C@H]2C3/C=C/C/C=C\CNC1=O (stereo partly specified) ? bottom

Which band does C=CCC(OC(C)=O)[C@@H]1[C@@H](N(Cc2cccc3ccccc23)C(=O)Cc2ccc(OC)cc2)c2cc(OCCCO)ccc2N1C(=O)c1ccc2ccccc2c1 (stereo partly specified) fall in? top

Form field 'band' for CN(C)CCCCNC(=O)[C@H]1C[C@H]2C(=O)N3CCC[C@H]3C(=O)N2[C@H]1c1cccc(OCCO)c1 top

Any idea which band N#Cc1ccc(C(O)C2C=CC3C(=O)NC(=O)C3N2Nc2ccc(Cl)cc2Cl)cc1 (stereo unspecified) is in? top

Class (by measured z-score) for NC(=O)NCC#Cc1ccc2c(c1)[C@]1(C(=O)N2)[C@H](c2ccc(OCCO)cc2)N2[C@H](c3ccccc3)[C@H](c3ccccc3)OC(=O)[C@H]2[C@@H]1C(=O)O bottom

Which category fits this record: C=CCC(OC(C)=O)[C@@H]1[C@@H](N(Cc2ccc(-c3ccccc3)cc2)C(=O)c2cccc3ccccc23)c2cc(OCCCO)ccc2N1C(=O)Cc1ccc(OC)cc1 (stereo partly specified) top

Could you tell me which band O=C1N(CCS(=O)(=O)c2ccccc2)c2ccccc2C[C@]12N=C(c1ccc(OCCCO)cc1)O[C@@H]2c1ccccc1 belongs to? bottom
